- Tested on: SNB-78
- test_method_notes: NCI tumour cell line growth inhibition, 48 h
Calls of active or inactive are those of the source. Rule as the data show it: active = GI50 up to about 1.1 µM and inactive = higher.
parameter_measured: GI50

Below, each entry is followed by its recorded GI50 result.
- O=C(Cc1nc2ccccc2o1)C(=O)Nc1cccc(C(F)(F)F)c1: > 100 µM (inactive)
- CC(C)(C)C1CCC2(CC1)CCN(CCCN1CCOCC1)CC2: 38.5 µM (inactive)
- COC(=O)N1CCc2c(nc(N(C)CCO)[nH]c2=O)C1: > 100 µM (inactive)
- COc1cc(-c2cc(=O)c3c(O)c(OC)c(OC)c(OC)c3o2)ccc1O: 27.7 µM (inactive)
- CC(C)C1N2CCCCC2[C@@H]2c3[nH]c4ccccc4c3CCN12 (some centres undefined): > 100 µM (inactive)

Input: Find GI50 (SNB-78) for the entry "CC(=O)CCCCO"
Output: > 100 µM (inactive)

Input: Can you handle "O=c1[nH]c2cc(-c3ccccc3)nc-2nn1-c1c(Cl)cc(Cl)cc1Cl" next?
Output: 37.5 µM (inactive)

Input: Can you handle "CCCc1c2c([nH]c(=O)c1C)C(=O)c1[nH]c(=O)c(C)c(CCC)c1C2=O" next?
Output: 30.3 µM (inactive)

Input: Can you handle "O=C(/C=C/c1ccc[nH]1)c1ccccc1" next?
Output: > 100 µM (inactive)

###

- Test system: U-251
- test_method_notes: NCI tumour cell line growth inhibition, 48 h
Calls of active or inactive are those of the source. Rule as the data show it: active = GI50 up to about 1.1 µM and inactive = higher.
We begin with a simple list: items and their reported GI50.

Below, each entry is followed by its recorded GI50 result.
- O=S(=O)(O)c1cc(/N=[N+](\[O-])c2ccc(/N=N/c3ccccc3)cc2S(=O)(=O)O)ccc1/C=C/c1ccc(/N=[N+](\[O-])c2ccc(/N=N/c3ccccc3)cc2S(=O)(=O)O)cc1S(=O)(=O)O: > 100 µM (inactive)
- O=C1c2ccoc2C(=O)c2oc(=O)ccc21: 8.15 µM (inactive)
- CCOC(=O)C(O)(NC(=O)Nc1ccc(F)cc1)C(F)(F)F (configuration not stated): > 100 µM (inactive)
- CCOC(=O)C1=C(Nc2cccc3ccccc23)OCC1=O: > 100 µM (inactive)
- Cc1ccc(C)c(COCCOCn2cc(Br)c(N)nc2=O)c1: > 100 µM (inactive)
- Cc1cc(Cl)nc2ccc(Cc3ccc4nc(Cl)cc(C)c4c3)cc12: 16.2 µM (inactive)

Please look at the following molecule next.
Input: What does the data say about its GI50? Entry: "COc1ccc(/C=C/C(=O)Oc2cc(O)cc(O)c2)cc1"
Output: 24.6 µM (inactive)

###

- System: MCF7
- test_method_notes: NCI tumour cell line growth inhibition, 48 h
Activity calls are given as the source filed them. Cut-off read from the data, not from the text of the source: active = GI50 up to about 1.1 µM and inactive = higher.
Your reply should match one of these outcome classes. active, inactive

Example cases with answers are listed next.
• COc1cc2c(cc1O)C(=O)O[C@@H]1CC=C3CCN(C)[C@H]3[C@H]21 = inactive
• O=[N+]([O-])/C(C(Cl)=C(Cl)Cl)=C(\Nc1cccc2cccnc12)SCc1ccccc1 = inactive
• CNCCCNc1c2ccccc2nc2cccc([N+](=O)[O-])c12 = active
• Nc1c(-c2ccccc2)c2ccc([N+](=O)[O-])cc2c(=O)n1-c1cccc(C(=O)O)c1 = inactive
• COCC12CCC(OC)C34C5CC6(O)C(OC)CC(OC(C)=O)(C5C6OC(=O)c5ccccc5)C(C(OC)C13)C4N(C)C2 (configuration not stated) = inactive
• c1ccc(CSC2(SCc3ccccc3)CCCCC2)cc1 = inactive
• O=[N+]([O-])/C(C(Cl)=C(Cl)Cl)=C1\Nc2ccc([N+](=O)[O-])cc2N1 = inactive
• COC(=O)c1c(O)ccc2c1c1cc3ccccc3cc1n2Cc1cc(OC)cc(OC)c1 = inactive
• CCOS(C)(=O)=O = inactive
• COc1cc(-c2oc(/C=N/c3ccccc3)c([N+](=O)[O-])c2-c2ccc(O)c(OC)c2)ccc1O = inactive

Input: Just curious, what result did "Cc1c(OCc2cccc3ccccc23)ccc2c(=O)cc(SCCN3CCOCC3)oc12" get here?
Output: inactive

Input: Can you handle CC1OC(OC2C(O[C@H]3CC[C@@]4(C)C(=CC[C@H]5[C@@H]6C[C@@H]7O[C@]8(CC[C@@H](C)CO8)[C@@H](C)[C@@H]7[C@@]6(C)CC[C@@H]54)C3)OC(CO)C(O)C2OC2OC(CO)C(O)C(O)C2O)C(O)C(O)C1O (some centres not stated) next?
Output: inactive
